readoutKind: melting point (°C)

CC(C)C12CCC(C)(CC1)O2; 1
CCCCCCC(=O)OCCCCC; -50
Oc1ccncc1; 150
CC(C)NCCO; 128
c1ccc(C2CC2)cc1; -31
Cc1ccc(NCc2ccccc2)cc1; 19.5
CC1=C(C)CCCC1; -84.1
OCCOCCOCCO; -7
CCC(=O)Nc1nc(C)c(Cl)s1; 159
CC(C)(C)c1ccccc1; -57.8
CCC(=O)O[C@]1(C(=O)CCl)[C@@H](C)C[C@H]2[C@@H]3CCC4=CC(=O)C=C[C@]4(C)[C@@]3(F)[C@@H](O)C[C@@]21C; 196
CC(C)(C(=O)O)n1nc2ccccc2n1; 152
CCCCCCCCCCCCCc1ccccc1; 10
c1c2c(cc3c1CCCC3)CCCC2; 78
Cc1cc(CO)c(O)c(CO)c1; 129
COC(=O)c1ccc(C)cc1C; -2
Cc1cccc(N2CC(CO)OC2=O)c1 (configuration not stated); 76
Cc1cccc(C)n1; -6.1
O=[Se](O)c1ccccc1; 124
O=c1cn[nH]c(=O)[nH]1; 274
CC(CN(C)C)CN1c2ccccc2Sc2ccccc21 (configuration not stated); 68
CC(=O)c1ccc(C)nc1; 17.6
O=C(O)c1ccc(NS(=O)(=O)Cc2ccccc2)cc1; 230
CC(=O)[C@@H]1CC[C@H]2[C@@H]3CCC4=CC(=O)CC[C@]4(C)[C@H]3C(=O)C[C@]12C; 172
Cc1ccc(NC(=O)c2ccccc2)cc1; 158
C[C@H]1O[C@H](O[C@H]2CC[C@H](n3ccc(NC(=O)c4ccc(NC(=O)[C@@](C)(N)CO)cc4)nc3=O)O[C@@H]2C)[C@H](O)[C@@H](O)[C@@H]1N(C)C; 167
C1CCC(CCCC2CCCCC2)CC1; -17
ON=C1CCCCC1=NO; 192
CCCCCCCCC(=O)Cl; -60.5
CC(=O)CO; -17
NC(=O)c1ccc(Cl)cc1; 174
CCCCCCCCC=CCCCCCCCCCCCCO; 35
